These measurements were taken from paper PMC11215778.

assayDetails: Plasma stability assay, rat plasma
Assay type: in vitro ADME
measuredMetric: remaining at 6 h, 5 μM
Report field: quantity (unit follows the number).

[[record]]
molecule = "O=C(OC[C@H]1CCCN1)[C@@H]1[C@H]2C[C@H]3c4[nH]c5ccccc5c4CCN3C[C@@H]2CC[C@@H]1O [Compound 4a]"
endpointresult = "68%"

[[record]]
molecule = "O=C(OC1CNC1)[C@@H]1[C@H]2C[C@H]3c4[nH]c5ccccc5c4CCN3C[C@@H]2CC[C@@H]1O [Compound 4m]"
endpointresult = "70%"

[[record]]
molecule = "CNCCOC(=O)[C@@H]1[C@H]2C[C@H]3c4[nH]c5ccccc5c4CCN3C[C@@H]2CC[C@@H]1O [Compound 4c]"
endpointresult = "80%"

[[record]]
molecule = "N[C@H]1C[C@H](OC(=O)[C@@H]2[C@H]3C[C@H]4c5[nH]c6ccccc6c5CCN4C[C@@H]3CC[C@@H]2O)C1 [Compound 4n]"
endpointresult = "84%"

[[record]]
molecule = "CN1CC[C@H](OC(=O)[C@@H]2[C@H]3C[C@H]4c5[nH]c6ccccc6c5CCN4C[C@@H]3CC[C@@H]2O)C1 [Compound 4p]"
endpointresult = "85%"


Please report the recorded remaining at 6 h, 5 μM for O=C(OC[C@H]1CCN1)[C@@H]1[C@H]2C[C@H]3c4[nH]c5ccccc5c4CCN3C[C@@H]2CC[C@@H]1O [Compound 4g] .
134%

Try O=C(O[C@H]1CCNC1)[C@@H]1[C@H]2C[C@H]3c4[nH]c5ccccc5c4CCN3C[C@@H]2CC[C@@H]1O [Compound 4l] next.
80%

###

Form field: remaining at 6 h, 5 μM (one value per entry).
assayDetails: Plasma stability assay, rat plasma
Format: in vitro ADME
Kindly provide the numeric value in % only, without the unit symbol.

[[record]]
compound = "O=C(O[C@@H]1CCNC1)[C@@H]1[C@H]2C[C@H]3c4[nH]c5ccccc5c4CCN3C[C@@H]2CC[C@@H]1O [Compound 4k]"
measuredmetric = "remaining at 6 h, 5 μM"
endpointresult = 110

[[record]]
compound = "O=C(OC[C@@H]1CCNC1)[C@@H]1[C@H]2C[C@H]3c4[nH]c5ccccc5c4CCN3C[C@@H]2CC[C@@H]1O [Compound 4i]"
measuredmetric = "remaining at 6 h, 5 μM"
endpointresult = 62

[[record]]
compound = "O=C(OC1CCNCC1)[C@@H]1[C@H]2C[C@H]3c4[nH]c5ccccc5c4CCN3C[C@@H]2CC[C@@H]1O [Compound 4d]"
measuredmetric = "remaining at 6 h, 5 μM"
endpointresult = 87


Please report the recorded remaining at 6 h, 5 μM for O=C(OC1COC1)[C@@H]1[C@H]2C[C@H]3c4[nH]c5ccccc5c4CCN3C[C@@H]2CC[C@@H]1O [Compound 4r] .
89

Try O=C(OC[C@H]1CCNC1)[C@@H]1[C@H]2C[C@H]3c4[nH]c5ccccc5c4CCN3C[C@@H]2CC[C@@H]1O [Compound 4j] next.
76

###

Form field: viability at 72 h, 10 µM (one value per entry).
assayDetails: Cytotoxicity assay (CellTiter-Glo) on normal human dermal fibroblasts
Type: cell-based
runConditions: normal human dermal fibroblasts (NHDF), 10 uM, read-out: NHDF viability at 10 uM (supplement csv)

[[record]]
structure = "O=C(OC1CCNCC1)[C@@H]1[C@H]2C[C@H]3c4[nH]c5ccccc5c4CCN3C[C@@H]2CC[C@@H]1O"
measuredmetric = "viability at 72 h, 10 µM"
endpointresult = "104%"

[[record]]
structure = "O=C(OC[C@H]1CCCN1)[C@@H]1[C@H]2C[C@H]3c4[nH]c5ccccc5c4CCN3C[C@@H]2CC[C@@H]1O"
measuredmetric = "viability at 72 h, 10 µM"
endpointresult = "106%"

[[record]]
structure = "CC(C)CCOC(=O)[C@@H]1[C@H]2C[C@H]3c4[nH]c5ccccc5c4CCN3C[C@@H]2CC[C@@H]1O"
measuredmetric = "viability at 72 h, 10 µM"
endpointresult = "114%"


Please report the recorded viability at 72 h, 10 µM for O=C(N[C@H]1CCNC1)[C@@H]1[C@H]2C[C@H]3c4[nH]c5ccccc5c4CCN3C[C@@H]2CC[C@@H]1O .
88%

Try O=C(OC[C@H]1CCNC1)[C@@H]1[C@H]2C[C@H]3c4[nH]c5ccccc5c4CCN3C[C@@H]2CC[C@@H]1O next.
102%

Try O=C(O[C@H]1CCNC1)[C@@H]1[C@H]2C[C@H]3c4[nH]c5ccccc5c4CCN3C[C@@H]2CC[C@@H]1O next.
94%

###

assayDetails: Plasma stability assay, human plasma
Format: in vitro ADME
runConditions: pooled plasma; human plasma, 5 μM, 37 °C; read-out: Plasma stability % remaining at 6 h, hum
measuredMetric: remaining at 6 h, 5 μM (%)
Kindly provide the numeric value in % only, without the unit symbol.

[[record]]
structure = "O=C(OC[C@H]1CCN1)[C@@H]1[C@H]2C[C@H]3c4[nH]c5ccccc5c4CCN3C[C@@H]2CC[C@@H]1O"
endpointresult = 118


Please report the recorded remaining at 6 h, 5 μM for CN1CC[C@H](OC(=O)[C@@H]2[C@H]3C[C@H]4c5[nH]c6ccccc6c5CCN4C[C@@H]3CC[C@@H]2O)C1 .
109

Try N[C@H]1C[C@@H](OC(=O)[C@@H]2[C@H]3C[C@H]4c5[nH]c6ccccc6c5CCN4C[C@@H]3CC[C@@H]2O)C1 next.
97

Try O=C(O[C@H]1CCOC1)[C@@H]1[C@H]2C[C@H]3c4[nH]c5ccccc5c4CCN3C[C@@H]2CC[C@@H]1O next.
118

Try O=C(OC[C@H]1CCNC1)[C@@H]1[C@H]2C[C@H]3c4[nH]c5ccccc5c4CCN3C[C@@H]2CC[C@@H]1O next.
92

Try O=C(O[C@@H]1CCNC1)[C@@H]1[C@H]2C[C@H]3c4[nH]c5ccccc5c4CCN3C[C@@H]2CC[C@@H]1O next.
95

###

assayDetails: Cytotoxicity assay (CellTiter-Glo) on normal human dermal fibroblasts
Format: cell-based
runConditions: normal human dermal fibroblasts (NHDF), 10 uM, read-out: NHDF viability at 10 uM (supplement csv)
Form field: viability at 72 h, 10 µM (one value per entry).
Kindly provide the numeric value in % only, without the unit symbol.

Here are 5 compounds together with their reported answers.
[[record]]
structure = "O=C(OC[C@H]1CCN1)[C@@H]1[C@H]2C[C@H]3c4[nH]c5ccccc5c4CCN3C[C@@H]2CC[C@@H]1O"
measuredmetric = "viability at 72 h, 10 µM"
endpointresult = 120

[[record]]
structure = "N[C@H]1C[C@@H](OC(=O)[C@@H]2[C@H]3C[C@H]4c5[nH]c6ccccc6c5CCN4C[C@@H]3CC[C@@H]2O)C1"
measuredmetric = "viability at 72 h, 10 µM"
endpointresult = 86

[[record]]
structure = "N[C@H]1C[C@H](OC(=O)[C@@H]2[C@H]3C[C@H]4c5[nH]c6ccccc6c5CCN4C[C@@H]3CC[C@@H]2O)C1"
measuredmetric = "viability at 72 h, 10 µM"
endpointresult = 89

[[record]]
structure = "CC(C)OC(=O)[C@@H]1[C@H]2C[C@H]3c4[nH]c5ccccc5c4CCN3C[C@@H]2CC[C@@H]1O"
measuredmetric = "viability at 72 h, 10 µM"
endpointresult = 102

[[record]]
structure = "O=C(OC[C@@H]1CCNC1)[C@@H]1[C@H]2C[C@H]3c4[nH]c5ccccc5c4CCN3C[C@@H]2CC[C@@H]1O"
measuredmetric = "viability at 72 h, 10 µM"
endpointresult = 107


Please report the recorded viability at 72 h, 10 µM for O=C(O[C@@H]1CCNC1)[C@@H]1[C@H]2C[C@H]3c4[nH]c5ccccc5c4CCN3C[C@@H]2CC[C@@H]1O .
91

###

assayTarget: ADRA1A (Homo sapiens)
Sequence (P35348 whole entry): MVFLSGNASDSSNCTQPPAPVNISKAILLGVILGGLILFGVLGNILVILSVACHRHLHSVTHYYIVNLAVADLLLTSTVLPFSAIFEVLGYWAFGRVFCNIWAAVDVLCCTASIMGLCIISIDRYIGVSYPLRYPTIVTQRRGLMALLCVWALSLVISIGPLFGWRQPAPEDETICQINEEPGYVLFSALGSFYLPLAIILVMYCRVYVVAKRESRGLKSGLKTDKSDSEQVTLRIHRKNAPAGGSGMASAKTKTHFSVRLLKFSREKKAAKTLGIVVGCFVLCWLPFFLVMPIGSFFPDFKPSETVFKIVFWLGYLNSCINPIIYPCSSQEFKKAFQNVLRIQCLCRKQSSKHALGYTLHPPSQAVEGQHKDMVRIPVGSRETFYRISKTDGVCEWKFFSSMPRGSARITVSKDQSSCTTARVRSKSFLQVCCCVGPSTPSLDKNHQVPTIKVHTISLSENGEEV
runConditions: read-out: ADRA1A IC50; antagonist activity, receptor stimulated with EC80 of epinephrine, Chem-1 cells
Form field: IC50 (one value per entry).
Kindly provide the numeric value in nM only, without the unit symbol.

Here are 3 compounds together with their reported answers.
[[record]]
structure = "O=C(OC1CCCC1)[C@@H]1[C@H]2C[C@H]3c4[nH]c5ccccc5c4CCN3C[C@@H]2CC[C@@H]1O"
endpointresult = 2640

[[record]]
structure = "CCOC(=O)[C@@H]1[C@H]2C[C@H]3c4[nH]c5ccccc5c4CCN3C[C@@H]2CC[C@@H]1O"
endpointresult = 3340

[[record]]
structure = "O=C(OC1COC1)[C@@H]1[C@H]2C[C@H]3c4[nH]c5ccccc5c4CCN3C[C@@H]2CC[C@@H]1O"
endpointresult = 1940


Please report the recorded IC50 for O=C(O[C@H]1CCOC1)[C@@H]1[C@H]2C[C@H]3c4[nH]c5ccccc5c4CCN3C[C@@H]2CC[C@@H]1O .
537

###

assayDetails: Cytotoxicity assay (CellTiter-Glo) on normal human dermal fibroblasts
Format: cell-based
runConditions: normal human dermal fibroblasts (NHDF), 10 uM, read-out: NHDF viability at 10 uM (supplement csv)
Form field: viability at 72 h, 10 µM (one value per entry).
Kindly provide the numeric value in % only, without the unit symbol.

[[record]]
structure = "CN1CC[C@H](OC(=O)[C@@H]2[C@H]3C[C@H]4c5[nH]c6ccccc6c5CCN4C[C@@H]3CC[C@@H]2O)C1"
endpointresult = 80

[[record]]
structure = "CNCCOC(=O)[C@@H]1[C@H]2C[C@H]3c4[nH]c5ccccc5c4CCN3C[C@@H]2CC[C@@H]1O"
endpointresult = 91

[[record]]
structure = "O=C(OC1CNC1)[C@@H]1[C@H]2C[C@H]3c4[nH]c5ccccc5c4CCN3C[C@@H]2CC[C@@H]1O"
endpointresult = 77

[[record]]
structure = "CC(C)(C)OC(=O)[C@@H]1[C@H]2C[C@H]3c4[nH]c5ccccc5c4CCN3C[C@@H]2CC[C@@H]1O"
endpointresult = 117

[[record]]
structure = "CCOC(=O)[C@@H]1[C@H]2C[C@H]3c4[nH]c5ccccc5c4CCN3C[C@@H]2CC[C@@H]1O"
endpointresult = 108


Please report the recorded viability at 72 h, 10 µM for O=C(OC[C@@H]1CCCN1)[C@@H]1[C@H]2C[C@H]3c4[nH]c5ccccc5c4CCN3C[C@@H]2CC[C@@H]1O .
103

Try O=C(NC1CNC1)[C@@H]1[C@H]2C[C@H]3c4[nH]c5ccccc5c4CCN3C[C@@H]2CC[C@@H]1O next.
88
